Reference source for all entries: patent US11123292B2

Hi there, I'd appreciate the recorded Relative Energy Difference (RED) with cholesterol for every entry that follows.
assay.details: Relative Energy Difference (RED) with cholesterol, calculated from HSP
assay.conditions: RED=Ra/Ro, Ro of cholesterol 12.6

Task item: Consider the compound C=CC(C)(O)CCC=C(C)CCC=C(C)C (stereo not drawn) and give its measured Relative Energy Difference (RED) with cholesterol.
Reply: 0.64

Task item: Consider the compound O [water, reference compound] and give its measured Relative Energy Difference (RED) with cholesterol.
Reply: 2.9

Task item: Consider the compound C=C(C)[C@@H]1CCC=C(C)C1 and give its measured Relative Energy Difference (RED) with cholesterol.
Reply: 0.74

Task item: Consider the compound C=CC(C)=CCC=C(C)C and give its measured Relative Energy Difference (RED) with cholesterol.
Reply: 0.62

Task item: Consider the compound CC(C)=CCC[C@H](C)[C@@H]1C=CC(C)=CC1 and give its measured Relative Energy Difference (RED) with cholesterol.
Reply: 0.74

Task item: Consider the compound CC1CCC(C(C)C)C(O)C1 (stereo not drawn) and give its measured Relative Energy Difference (RED) with cholesterol.
Reply: 0.63

Task item: Consider the compound CC1=CC(=O)C(C(C)C)CC1 (stereo not drawn) and give its measured Relative Energy Difference (RED) with cholesterol.
Reply: 0.72

Task item: Consider the compound C=CC(C)(C)C(=O)C=C(C)C and give its measured Relative Energy Difference (RED) with cholesterol.
Reply: 0.83

Task item: Consider the compound CC(C)=C1CC[C@@H](C)CC1=O and give its measured Relative Energy Difference (RED) with cholesterol.
Reply: 0.74

Task item: Consider the compound CC(C)=CCCC(C)CCO (stereo not drawn) and give its measured Relative Energy Difference (RED) with cholesterol.
Reply: 0.72

Task item: Consider the compound C=C(C)C1CC=C(C)C(=O)C1 (stereo not drawn) and give its measured Relative Energy Difference (RED) with cholesterol.
Reply: 0.5

Task item: Consider the compound CCCO [Propanol, reference compound] and give its measured Relative Energy Difference (RED) with cholesterol.
Reply: 1.10

====

assay.details: Relative Energy Difference (RED) with cholesterol, calculated from HSP
assay.conditions: RED=Ra/Ro, Ro of cholesterol 12.6
endpoint.name: Relative Energy Difference (RED) with cholesterol
Lab note: record the figure alone, no unit after it.

Task item: Consider the compound C=C(C)C1CC=C(C=O)CC1 (stereo not drawn) and give its measured Relative Energy Difference (RED) with cholesterol.
Reply: 0.68

Task item: Consider the compound c1ccc(Oc2ccccc2)cc1 and give its measured Relative Energy Difference (RED) with cholesterol.
Reply: 0.32

Task item: Consider the compound C=CC(C)(CCC=C(C)C)OC(C)=O (stereo not drawn) [Linalyl Acetate] and give its measured Relative Energy Difference (RED) with cholesterol.
Reply: 0.76

====

assay.details: Relative Energy Difference (RED) with cholesterol, calculated from HSP
assay.conditions: RED=Ra/Ro, Ro of cholesterol 12.6
Procedure: The extent to which two compounds will dissolve each other can be quantified using the equations developed by Hansen: (Ra)^2=4(δd2−δd1)^2+(δp2−δp1)^2+(δh2−δh1)^2 Eq. (1) RED=Ra/Ro Eq. (2) Equation 1 calculates the relative magnitude difference of the three Hansen parameters of the two compounds to arrive at Ra. […] Ra was calculated in Equation 1 and measures the magnitude of the difference of the HSP values of the two compounds. […]
Hi there, I'd appreciate the recorded Relative Energy Difference (RED) with cholesterol for every entry that follows.
Lab note: record the figure alone, no unit after it.

Task item: Consider the molecule CC1=CCC(=C(C)C)CC1 and give its measured Relative Energy Difference (RED) with cholesterol.
Reply: 0.70

Task item: Consider the molecule CC(C)=CCCC(C)=CCCC(C)=CCO and give its measured Relative Energy Difference (RED) with cholesterol.
Reply: 0.65

Task item: Consider the molecule CC(C)[C@@H]1CC[C@@H](C)CC1=O and give its measured Relative Energy Difference (RED) with cholesterol.
Reply: 0.79
